# Target Of Assay: UniProt P00742
# Test Method Notes: Human activated blood coagulation factor X (FXa) inhibitory activity
# Stated Conditions: concentration at which 50% of FXa activity was inhibited; substrate S-2765, 37° C., absorbance at 405 nm
Counter-ions that a name gives are not always drawn.
I'd be grateful if you could share measured pIC50 for these entries.
Note: pIC50 values are expressed as the negative base-10 logarithm of concentration in M.

The recorded pIC50 for Cc1nccn1CCC1CCN(C(=O)CCS(=O)(=O)c2ccc3cc(Cl)ccc3c2)CC1 [Example 102, hydrochloride] is 7.37

The recorded pIC50 for `Cc1ncn2c1C(=O)N(C1CCN(C(=O)CCS(=O)(=O)c3ccc4cc(Cl)ccc4c3)CC1)CC2` is 7.96

The recorded pIC50 for `Cc1ncc2n1CCN(C1CCN(C(=O)CCS(=O)(=O)c3ccc4cc(Cl)ccc4c3)CC1)C2=O` is 7.96

###

# Target Of Assay: human FXa (Homo sapiens, UniProt P00742)
# Sequence (P00742 235-488 limits assumed): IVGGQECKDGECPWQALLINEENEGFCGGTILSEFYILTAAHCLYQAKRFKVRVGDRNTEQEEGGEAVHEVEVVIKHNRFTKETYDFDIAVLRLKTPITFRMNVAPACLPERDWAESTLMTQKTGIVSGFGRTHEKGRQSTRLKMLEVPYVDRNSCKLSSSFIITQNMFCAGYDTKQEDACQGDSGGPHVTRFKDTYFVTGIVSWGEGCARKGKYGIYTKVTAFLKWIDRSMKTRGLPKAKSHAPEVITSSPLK
# Sequence (P00742 41-179 partner limits assumed): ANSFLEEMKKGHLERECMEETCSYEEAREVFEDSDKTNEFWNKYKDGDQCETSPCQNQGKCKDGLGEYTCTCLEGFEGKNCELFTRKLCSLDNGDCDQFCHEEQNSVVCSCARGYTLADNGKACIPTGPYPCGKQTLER
# Test Method Notes: Human activated blood coagulation factor X (FXa) inhibitory activity
# Stated Conditions: concentration at which 50% of FXa activity was inhibited; substrate S-2765, 37° C., absorbance at 405 nm
Outcome Measure: IC50

The recorded IC50 for `Cc1ncc(C2CCN(C(=O)CCS(=O)(=O)c3ccc4cc(Cl)ccc4c3)CC2)n1C` is 31 nM

The recorded IC50 for `CCc1ncc2n1C(=O)N(C1CCN(C(=O)CCS(=O)(=O)c3ccc4cc(Cl)ccc4c3)CC1)C2` is 7.1 nM

The recorded IC50 for `Cc1nc(C)n(CCC2CCN(C(=O)CCS(=O)(=O)c3ccc4cc(Cl)ccc4c3)CC2)c1C` is 45 nM

The recorded IC50 for `Cc1nc(C)n2c1CN(C1CCN(C(=O)CCS(=O)(=O)c3ccc4cc(Cl)ccc4c3)CC1)C2=O` is 7.2 nM
